# credit: ChEMBL document CHEMBL1201862

# Tested on: RPMI-8226
# methodSummary: NCI tumour cell line growth inhibition, 48 h
Calls of active or inactive are those of the source. No stated cut-off is given here; in the data, active = GI50 up to about 1.1 µM and inactive = higher.
readoutKind: GI50

CN(C)S(=O)(=O)Nc1ccccn1 | > 100 µM (inactive)
CCCCOP(=O)(OCCCC)/C(C#N)=C/c1ccco1 | 45.2 µM (inactive)
Cn1c(=O)[nH]c2c(c1=O)C(=O)CN2 | > 100 µM (inactive)
CN(C)c1ccc(/C=C2\N=C(c3ccc(N)cc3)OC2=O)cc1 | > 100 µM (inactive)
C/C(=C\c1ccccc1)C(=O)NCc1ccc(C(=O)NCCc2ccccc2)cc1 | > 100 µM (inactive)
O=C(O)C(CS)Nc1c2ccccc2[n+]([O-])c2ccccc12 (stereo unspecified) | 29.1 µM (inactive)
COC(=O)C12C3C4C5(C(=O)OC)C(C1C35C(=O)N(C(C)C)C(C)C)C42C(=O)N(C(C)C)C(C)C (stereo unspecified) | > 36.3 µM (inactive)
[N-]=[N+]=NC(CCl)c1cn([C@H]2C[C@H](O)[C@@H](CO)O2)c(=O)[nH]c1=O (stereo partly specified) | > 100 µM (inactive)

Assay RPMI-8226, sample C/C(=N\NC(C)(C)C)c1sc(-c2nc(C)c(/C(C)=N/NC(C)(C)C)s2)nc1C , GI50 read: > 100 µM (inactive)

Assay RPMI-8226, sample O=C(CCc1n[nH]c(=S)o1)Nc1cc(Cl)c(Cl)cc1Cl , GI50 read: 20.5 µM (inactive)

Assay RPMI-8226, sample CC12C/C(=C\c3ccccc3)C(=O)C3C1CCCC32 , GI50 read: 34.2 µM (inactive)

Assay RPMI-8226, sample Cc1cccc(-n2c(C)nc3ccc(NC4OC(CO)C(O)C(O)C4O)cc3c2=O)c1 (stereo unspecified) , GI50 read: > 100 µM (inactive)

Assay RPMI-8226, sample Cc1cn(C2CC(O)C(COP(=O)(O)OC3CC(n4c[n+]([BH2-]C#N)c5c(=O)[nH]c(N)nc54)OC3CO)O2)c(=O)[nH]c1=O (stereo unspecified) , GI50 read: > 100 µM (inactive)

Assay RPMI-8226, sample N#CC1=C(N)C(C#N)(C#N)C(c2ccc(F)cc2)C=C1C1CC1 (stereo unspecified) , GI50 read: 7.05 µM (inactive)

Assay RPMI-8226, sample O=Cc1cc2sc(C=O)cc2s1 , GI50 read: > 100 µM (inactive)

Assay RPMI-8226, sample COc1cc2cc3c4cc(OC)c(OC)cc4cc[n+]3c(C)c2cc1OC , GI50 read: > 100 µM (inactive)

Assay RPMI-8226, sample Nc1nc(-c2ccco2)cc(-c2ccc(CO)o2)n1 , GI50 read: 41.4 µM (inactive)

Assay RPMI-8226, sample CN1C(c2ccccc2)CC(=O)C(N)C1c1ccccc1 (stereo unspecified) , GI50 read: 17.3 µM (inactive)

Assay RPMI-8226, sample Nc1nc(O)nc2snnc12 , GI50 read: 5.7 µM (inactive)

Assay RPMI-8226, sample Cc1ccc(S(=O)(=O)N2CCN3C(=O)c4ccccc4C32c2ccc(F)cc2)cc1 (stereo unspecified) , GI50 read: 23.8 µM (inactive)

Assay RPMI-8226, sample CN(C)c1ccc(C=C2N=C(c3ccccc3)N(c3cc(C(=O)c4ccccc4)ccc3N3C(=O)/C(=C/c4ccc(N(C)C)cc4)N=C3c3ccccc3)C2=O)cc1 , GI50 read: 3.01 µM (inactive)
